# tgt: EGFR (Homo sapiens, UniProt P00533)
# Construct: endogenous in cells; host or cells: A431 cells (lysate, captured with SUMO1 anti-EGFR antibody)
# Sequence (P00533 25-1210): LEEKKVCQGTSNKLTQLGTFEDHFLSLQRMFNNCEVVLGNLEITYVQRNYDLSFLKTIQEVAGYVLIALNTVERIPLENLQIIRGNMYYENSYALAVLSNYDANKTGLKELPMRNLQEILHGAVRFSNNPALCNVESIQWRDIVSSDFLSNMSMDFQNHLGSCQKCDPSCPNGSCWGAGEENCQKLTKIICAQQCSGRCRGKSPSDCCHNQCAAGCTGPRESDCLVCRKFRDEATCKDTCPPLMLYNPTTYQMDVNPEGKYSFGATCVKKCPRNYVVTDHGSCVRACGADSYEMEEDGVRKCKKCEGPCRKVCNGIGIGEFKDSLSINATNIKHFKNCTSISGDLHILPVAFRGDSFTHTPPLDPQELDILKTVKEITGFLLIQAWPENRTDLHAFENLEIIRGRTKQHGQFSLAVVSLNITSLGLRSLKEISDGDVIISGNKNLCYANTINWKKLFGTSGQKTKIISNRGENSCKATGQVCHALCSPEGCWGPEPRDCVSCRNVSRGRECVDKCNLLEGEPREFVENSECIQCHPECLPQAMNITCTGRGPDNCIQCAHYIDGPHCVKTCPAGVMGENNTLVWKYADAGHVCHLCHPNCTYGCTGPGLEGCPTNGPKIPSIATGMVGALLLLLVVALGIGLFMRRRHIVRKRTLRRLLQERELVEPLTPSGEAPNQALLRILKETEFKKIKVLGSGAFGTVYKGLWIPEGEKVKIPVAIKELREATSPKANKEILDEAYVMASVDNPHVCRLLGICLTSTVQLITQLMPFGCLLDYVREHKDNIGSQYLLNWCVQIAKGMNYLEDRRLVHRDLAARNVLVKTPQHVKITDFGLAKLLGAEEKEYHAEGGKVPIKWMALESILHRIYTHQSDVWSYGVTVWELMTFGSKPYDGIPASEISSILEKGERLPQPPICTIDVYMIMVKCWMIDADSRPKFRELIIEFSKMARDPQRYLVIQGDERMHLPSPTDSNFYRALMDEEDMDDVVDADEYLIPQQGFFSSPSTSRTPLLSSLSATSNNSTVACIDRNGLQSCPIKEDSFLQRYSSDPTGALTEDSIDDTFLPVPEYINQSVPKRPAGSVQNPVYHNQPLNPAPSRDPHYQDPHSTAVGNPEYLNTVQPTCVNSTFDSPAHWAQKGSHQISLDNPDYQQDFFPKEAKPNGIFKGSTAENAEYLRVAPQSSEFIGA
# experimentDescription: Biochemical EGFR Assay
# Parameters: concentration or dose not given beside the values
# testConditions: protocol P.167
Kindly supply the reported Biochem EGFR % Inhibition (P.167) values for the records listed here.
Give bare numbers, in %.

Solved entries (count: 2):
>>> experimentalresult("O=C1Nc2c(Br)cc(Br)cc2C1=Cc1cc(Br)cs1")
21.9
>>> experimentalresult("COc1ccc(C=C2C(=O)Nc3ccc(S(=O)(=O)N4CCOCC4)cc32)cc1O")
"−6.5"

Turning to the following molecule.
Need Biochem EGFR % Inhibition (P.167), item `O=C1Nc2ccc(I)cc2C1=Cc1cnc2ccccc2c1`
46.1

====

Can you tell me Met Kinase % Inhibition (P.130) for the items I'm about to list?
# tgt: Met receptor (EGFR/Met chimeric cells, EMR) (Homo sapiens)
# Construct: expressed in transfected cells; the other entry of the earlier key: EGFR (P00533, Epidermal growth factor receptor)
# Sequence (P08581 with tags, fused parts or gaps): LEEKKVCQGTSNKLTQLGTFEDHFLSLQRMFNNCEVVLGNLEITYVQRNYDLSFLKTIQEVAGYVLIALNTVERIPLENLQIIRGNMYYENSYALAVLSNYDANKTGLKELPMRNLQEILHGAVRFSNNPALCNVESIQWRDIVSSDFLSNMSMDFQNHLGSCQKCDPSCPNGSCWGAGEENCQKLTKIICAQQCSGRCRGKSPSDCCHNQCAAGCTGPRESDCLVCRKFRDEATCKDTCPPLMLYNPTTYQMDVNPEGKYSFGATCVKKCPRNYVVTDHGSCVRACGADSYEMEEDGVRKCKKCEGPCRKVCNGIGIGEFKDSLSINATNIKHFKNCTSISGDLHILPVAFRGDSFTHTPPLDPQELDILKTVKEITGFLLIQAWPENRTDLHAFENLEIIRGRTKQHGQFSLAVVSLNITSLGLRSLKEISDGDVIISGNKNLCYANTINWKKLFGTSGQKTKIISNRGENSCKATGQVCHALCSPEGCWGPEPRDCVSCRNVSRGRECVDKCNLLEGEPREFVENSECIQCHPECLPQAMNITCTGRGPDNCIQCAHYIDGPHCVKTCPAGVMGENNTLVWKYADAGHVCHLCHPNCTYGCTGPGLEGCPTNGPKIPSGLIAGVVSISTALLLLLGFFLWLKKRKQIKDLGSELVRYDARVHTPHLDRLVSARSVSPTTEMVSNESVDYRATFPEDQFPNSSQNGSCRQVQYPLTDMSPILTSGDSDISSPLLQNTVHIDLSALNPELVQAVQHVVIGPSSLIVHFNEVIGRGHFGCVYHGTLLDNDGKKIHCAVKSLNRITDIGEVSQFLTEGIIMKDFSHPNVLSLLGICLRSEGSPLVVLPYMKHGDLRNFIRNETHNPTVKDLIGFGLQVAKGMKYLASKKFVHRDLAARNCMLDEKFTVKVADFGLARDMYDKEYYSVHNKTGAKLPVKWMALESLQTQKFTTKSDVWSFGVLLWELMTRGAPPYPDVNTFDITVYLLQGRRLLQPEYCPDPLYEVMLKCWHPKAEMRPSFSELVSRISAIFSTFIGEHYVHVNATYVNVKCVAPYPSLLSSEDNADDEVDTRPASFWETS
# experimentDescription: Met Autophosphorylation Assay
# Type: biochemical
Answer with the number, then the unit.

>>> experimentalresult("O=C1Nc2ccc(S(=O)(=O)Nc3ccc(C(F)(F)F)cc3)cc2C1=Cc1ccc(Cl)cc1")
"81.5%"

Hi! Can you tell me Met Kinase % Inhibition (P.130) for each of these compounds?
1. CCOC(=O)CCc1c(C(=O)OCC)[nH]c(C=C2C(=O)Nc3c(Br)cc(Br)c(C)c32)c1CC(=O)OCC
2. O=C1Nc2c(Br)cc(Br)cc2C1=Cc1cccc(F)c1O

1: 13.5%; 2: 71.5%

====

Assignment: determine reported PDGF Kinase % Inhibition (P.119) for the given compounds.
# System: PDGF-R
# experimentDescription: PDGF-R Assay (cellular ELISA, U1242 cells)
# Format: cell-based
# Set-up: concentration or dose not given beside the values
# testConditions: protocol P.119
Answers are plain numbers, in %.

>>> experimentalresult("Cc1c(Br)cc(Br)c2c1C(=Cc1ccc3ccccc3c1)C(=O)N2")
"−26.9"
>>> experimentalresult("CNS(=O)(=O)c1ccc2c(c1)C(=Cc1cccc(F)c1F)C(=O)N2")
2.2
>>> experimentalresult("Cc1ccc(C=C2C(=O)Nc3c(Br)cc(Br)c(C)c32)cc1")
"−10.0"
>>> experimentalresult("Cc1c(Br)cc(Br)c2c1C(=Cc1cccc(Cl)c1)C(=O)N2")
9.3
>>> experimentalresult("CN(C)CCCOc1ccc(C=C2C(=O)Nc3c(Br)cc(Br)cc32)cc1")
"−0.6"

List PDGF Kinase % Inhibition (P.119) for every entry below, keeping the order given.
1. Cc1ccc(C)c(C=C2C(=O)Nc3c(Br)cc(Br)c(C)c32)c1
2. O=C1Nc2ccc(I)cc2C1=Cc1cc(O)c(O)c(O)c1

1. −17.7
2. 19.8

====

# Tested on: FLK-1 receptor
# experimentDescription: FLK-1 Assay (cellular/catalytic ELISA, VEGF-stimulated phosphotyrosine)
# Format: cell-based
# Parameters: concentration or dose not given beside the values
# testConditions: protocol P.110
quantityName: Flk Kinase % Inhibition (P.110) (%)
Give bare numbers, in %.

Example entries begin here.
>>> experimentalresult("O=C1Nc2c(Br)cc(Br)cc2C1=Cc1cc(O)ccc1[N+](=O)[O-]")
"−24.5"
>>> experimentalresult("Cc1c(Br)ccc2c1C(=Cc1ccc(Oc3ccccc3)cc1)C(=O)N2")
8.4

Each molecule below has a recorded value; state its Flk Kinase % Inhibition (P.110).
1. O=C1Nc2ccc(I)cc2C1=Cc1ccc(Cl)c(Cl)c1
2. O=C1Nc2ccc(S(=O)(=O)Nc3ccc(C(F)(F)F)cc3)cc2C1=Cc1ccc(Oc2ccccc2)cc1

1: −0.7; 2: 11.9

Reference source for all entries: patent US20020026053A1
